- Tested on: panel of 60 cancer cell lines
- MEASUREMENT_CONTEXT: full panel (last line of Table S2)
Decide by MG_MID TGI: equal to or exceeding 6 µM means TRUE, less means FALSE.

[[record]]
compound = "O=C(O)CCCN1C(=O)/C(=C/C=C/c2ccc([N+](=O)[O-])o2)SC1=S [13b]"
system_under_test = "panel of 60 cancer cell lines"
label = "FALSE"

[[record]]
compound = "O=C(O)C(c1ccccc1)N1C(=O)/C(=C/C=C/c2ccc([N+](=O)[O-])o2)SC1=S (stereo not shown)"
system_under_test = "panel of 60 cancer cell lines"
label = "TRUE"

[[record]]
compound = "CCCCC(C(=O)O)N1C(=O)/C(=C/C=C/c2ccc([N+](=O)[O-])o2)SC1=S (stereo not shown)"
system_under_test = "panel of 60 cancer cell lines"
label = "TRUE"

[[record]]
compound = "O=C(O)CCN1C(=O)/C(=C/C=C/c2ccc([N+](=O)[O-])o2)SC1=S [12b]"
system_under_test = "panel of 60 cancer cell lines"
label = "FALSE"

[[record]]
compound = "O=C(O)CCCCCN1C(=O)/C(=C/C=C/c2ccc([N+](=O)[O-])o2)SC1=S [14b]"
system_under_test = "panel of 60 cancer cell lines"
label = "FALSE"

[[record]]
compound = "CC(C)C(C(=O)O)N1C(=O)/C(=C/C=C/c2ccc([N+](=O)[O-])o2)SC1=S (stereo not shown)"
system_under_test = "panel of 60 cancer cell lines"
label = "FALSE"


---

- Tested on: HOP-92
- ASSAY_OVERVIEW: NCI-60 SRB screen
- MEASUREMENT_CONTEXT: HOP-92, 48 h
PARAMETER_MEASURED: TGI (µM)

[[record]]
compound = "O=C(O)C(c1ccccc1)N1C(=O)/C(=C/C=C/c2ccc([N+](=O)[O-])o2)SC1=S (centres unmarked)"
parameter_measured = "TGI"
readout_number = 27.5

[[record]]
compound = "CCCC(C(=O)O)N1C(=O)/C(=C/C=C/c2ccc([N+](=O)[O-])o2)SC1=S (centres unmarked)"
parameter_measured = "TGI"
readout_number = 7.69

[[record]]
compound = "CCCCC(C(=O)O)N1C(=O)/C(=C/C=C/c2ccc([N+](=O)[O-])o2)SC1=S (centres unmarked)"
parameter_measured = "TGI"
readout_number = 9.85

[[record]]
compound = "CC(C)C(C(=O)O)N1C(=O)/C(=C/C=C/c2ccc([N+](=O)[O-])o2)SC1=S (centres unmarked)"
parameter_measured = "TGI"
readout_number = 4.17

[[record]]
compound = "O=C(O)CCN1C(=O)/C(=C/C=C/c2ccc([N+](=O)[O-])o2)SC1=S [12b]"
parameter_measured = "TGI"
readout_number = 3.50


---

Item-by-item account of CC50
- Test system: NCI-H322M
- MEASUREMENT_CONTEXT: human, 48 h
PARAMETER_MEASURED: CC50

[[record]]
compound = "O=C(O)CCCCCN1C(=O)/C(=C/C=C/c2ccc([N+](=O)[O-])o2)SC1=S [14b]"
system_under_test = "NCI-H322M"
parameter_measured = "CC50"
result = "6.92 µM"

[[record]]
compound = "O=C(O)CCCN1C(=O)/C(=C/C=C/c2ccc([N+](=O)[O-])o2)SC1=S [13b]"
system_under_test = "NCI-H322M"
parameter_measured = "CC50"
result = "22.8 µM"


---

- Tested on: UO-31
- MEASUREMENT_CONTEXT: human, 48 h
PARAMETER_MEASURED: CC50 (µM)

[[record]]
molecule = "O=C(O)CCCCCN1C(=O)/C(=C/C=C/c2ccc([N+](=O)[O-])o2)SC1=S [14b]"
parameter_measured = "CC50"
unit_abbreviation = "µM"
readout_number = 4.89


---

- System: Renal Cancer
GI50 vs 2000 nM: less than gives MET; not less than gives NOT MET.

[[record]]
molecule = "CCCC(C(=O)O)N1C(=O)/C(=C/C=C/c2ccc([N+](=O)[O-])o2)SC1=S (stereo not shown)"
label = "NOT MET"

[[record]]
molecule = "O=C(O)CCN1C(=O)/C(=C/C=C/c2ccc([N+](=O)[O-])o2)SC1=S [12b]"
label = "NOT MET"

[[record]]
molecule = "O=C(O)C(c1ccccc1)N1C(=O)/C(=C/C=C/c2ccc([N+](=O)[O-])o2)SC1=S (stereo not shown)"
label = "NOT MET"

[[record]]
molecule = "CCCCC(C(=O)O)N1C(=O)/C(=C/C=C/c2ccc([N+](=O)[O-])o2)SC1=S (stereo not shown)"
label = "NOT MET"

[[record]]
molecule = "O=C(O)CCCN1C(=O)/C(=C/C=C/c2ccc([N+](=O)[O-])o2)SC1=S [13b]"
label = "MET"

[[record]]
molecule = "CC(C)C(C(=O)O)N1C(=O)/C(=C/C=C/c2ccc([N+](=O)[O-])o2)SC1=S (stereo not shown)"
label = "MET"


---

- System: U251
- ASSAY_OVERVIEW: NCI-60 SRB screen
- MEASUREMENT_CONTEXT: read-out: LC50; U251, 48 h
PARAMETER_MEASURED: CC50 (µM)

[[record]]
compound = "O=C(O)CCCN1C(=O)/C(=C/C=C/c2ccc([N+](=O)[O-])o2)SC1=S [13b]"
readout_number = 3.16


---

- Tested on: TK-10
- ASSAY_OVERVIEW: cells
- MEASUREMENT_CONTEXT: Homo sapiens, TK-10, 48 h
Item-by-item account of GI50
PARAMETER_MEASURED: GI50

[[record]]
compound = "CCCCC(C(=O)O)N1C(=O)/C(=C/C=C/c2ccc([N+](=O)[O-])o2)SC1=S (stereo not drawn) [6b]"
result = "3130 nM"

[[record]]
compound = "O=C(O)CCN1C(=O)/C(=C/C=C/c2ccc([N+](=O)[O-])o2)SC1=S [12b]"
result = "2020 nM"

[[record]]
compound = "CC(C)C(C(=O)O)N1C(=O)/C(=C/C=C/c2ccc([N+](=O)[O-])o2)SC1=S (stereo not drawn) [5b]"
result = "2240 nM"

[[record]]
compound = "O=C(O)CCCCCN1C(=O)/C(=C/C=C/c2ccc([N+](=O)[O-])o2)SC1=S [14b]"
result = "1880 nM"

[[record]]
compound = "O=C(O)C(c1ccccc1)N1C(=O)/C(=C/C=C/c2ccc([N+](=O)[O-])o2)SC1=S (stereo not drawn) [9b]"
result = "16100 nM"

[[record]]
compound = "CCCC(C(=O)O)N1C(=O)/C(=C/C=C/c2ccc([N+](=O)[O-])o2)SC1=S (stereo not drawn) [4b]"
result = "3270 nM"


---

- Test system: IGROV1
- MEASUREMENT_CONTEXT: human, 48 h
PARAMETER_MEASURED: CC50 (µM)

[[record]]
compound = "O=C(O)CCCN1C(=O)/C(=C/C=C/c2ccc([N+](=O)[O-])o2)SC1=S [13b]"
system_under_test = "IGROV1"
parameter_measured = "CC50"
unit_abbreviation = "µM"
readout_number = 7.77


---

- Tested on: UACC-62
- ASSAY_OVERVIEW: NCI-60 SRB screen
- MEASUREMENT_CONTEXT: Homo sapiens, UACC-62, 48 h, read-out: LC50, UACC-62, 48 h
CC50 vs 5 µM: less than gives 1; not less than gives 0.

[[record]]
compound = "O=C(O)C(c1ccccc1)N1C(=O)/C(=C/C=C/c2ccc([N+](=O)[O-])o2)SC1=S (stereo not drawn) [9b]"
label = 0

[[record]]
compound = "O=C(O)CCCCCN1C(=O)/C(=C/C=C/c2ccc([N+](=O)[O-])o2)SC1=S [14b]"
label = 1

[[record]]
compound = "CCCC(C(=O)O)N1C(=O)/C(=C/C=C/c2ccc([N+](=O)[O-])o2)SC1=S (stereo not drawn) [4b]"
label = 0

[[record]]
compound = "CCCCC(C(=O)O)N1C(=O)/C(=C/C=C/c2ccc([N+](=O)[O-])o2)SC1=S (stereo not drawn) [6b]"
label = 0

[[record]]
compound = "O=C(O)CCN1C(=O)/C(=C/C=C/c2ccc([N+](=O)[O-])o2)SC1=S [12b]"
label = 1


---

- System: Ovarian cancer
- ASSAY_OVERVIEW: cells
- MEASUREMENT_CONTEXT: Homo sapiens, read-out: MG_MID GI50
PARAMETER_MEASURED: GI50 (nM)

[[record]]
molecule = "O=C(O)CCCN1C(=O)/C(=C/C=C/c2ccc([N+](=O)[O-])o2)SC1=S [13b]"
system_under_test = "Ovarian cancer"
unit_abbreviation = "nM"
readout_number = 960

[[record]]
molecule = "O=C(O)C(c1ccccc1)N1C(=O)/C(=C/C=C/c2ccc([N+](=O)[O-])o2)SC1=S (stereo not shown)"
system_under_test = "Ovarian cancer"
unit_abbreviation = "nM"
readout_number = 13000

[[record]]
molecule = "CCCC(C(=O)O)N1C(=O)/C(=C/C=C/c2ccc([N+](=O)[O-])o2)SC1=S (stereo not shown)"
system_under_test = "Ovarian cancer"
unit_abbreviation = "nM"
readout_number = 3120

[[record]]
molecule = "CC(C)C(C(=O)O)N1C(=O)/C(=C/C=C/c2ccc([N+](=O)[O-])o2)SC1=S (stereo not shown)"
system_under_test = "Ovarian cancer"
unit_abbreviation = "nM"
readout_number = 1920

[[record]]
molecule = "O=C(O)CCCCCN1C(=O)/C(=C/C=C/c2ccc([N+](=O)[O-])o2)SC1=S [14b]"
system_under_test = "Ovarian cancer"
unit_abbreviation = "nM"
readout_number = 1110

[[record]]
molecule = "CCCCC(C(=O)O)N1C(=O)/C(=C/C=C/c2ccc([N+](=O)[O-])o2)SC1=S (stereo not shown)"
system_under_test = "Ovarian cancer"
unit_abbreviation = "nM"
readout_number = 3320

[[record]]
molecule = "O=C(O)CCN1C(=O)/C(=C/C=C/c2ccc([N+](=O)[O-])o2)SC1=S [12b]"
system_under_test = "Ovarian cancer"
unit_abbreviation = "nM"
readout_number = 2050


Reference source for all entries: paper PMC12655351
